test: Pharmacokinetics after single i.v. or oral dose in rats; type: in vivo, Sprague-Dawley rats; conditions: male, Sprague-Dawley, rat, plasma, iv, 1 mg/kg, after clozapine i.v. 1 mg/kg, read-out: Average AUC of compound measured (converted)
MEASUREMENT NAME: AUC (ng·h/mL)

In [3]: df
Out[3]:
                                   compound  measured_result
0  Clc1ccc2c(c1)N=C(N1CCNCC1)c1ccccc1N2 [NDMC]             8.16

* * *

Protein target, amino acids: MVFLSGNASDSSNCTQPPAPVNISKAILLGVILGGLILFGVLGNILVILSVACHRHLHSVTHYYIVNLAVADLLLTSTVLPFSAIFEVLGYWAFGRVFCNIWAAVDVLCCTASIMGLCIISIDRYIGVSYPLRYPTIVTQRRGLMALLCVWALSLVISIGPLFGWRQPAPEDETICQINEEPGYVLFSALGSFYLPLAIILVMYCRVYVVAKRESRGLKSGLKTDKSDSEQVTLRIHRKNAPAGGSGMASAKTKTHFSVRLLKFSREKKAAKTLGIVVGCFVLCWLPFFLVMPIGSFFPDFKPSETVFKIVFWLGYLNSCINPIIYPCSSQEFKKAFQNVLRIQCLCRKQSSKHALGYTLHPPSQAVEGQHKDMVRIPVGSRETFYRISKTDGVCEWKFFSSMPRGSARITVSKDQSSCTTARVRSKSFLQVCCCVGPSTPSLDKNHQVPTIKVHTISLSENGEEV
Item-by-item account of Ki
MEASUREMENT NAME: Ki

                                   compound  measured_result
0  O=C1Cc2cc(CCN3CCN(c4nsc5ccccc45)CC3)c(Cl)cc2N1 [Ziprasidone, reference compound]          39.8 nM
1  Clc1ccc2c(c1)N=C(N1CCNCC1)c1ccccc1N2 [NDMC]          50.1 nM
